Target: Tyrosine-protein kinase SYK (Homo sapiens, UniProt P43405)
Assay: Inhibition of SYK in human B cells assessed as suppression of anti-IgM-induced CD69 surface expression preincubated for 30 mins followed by anti-IgM addition measured after 3.5 hrs by flow cytometric analysis
Assay type: cell-based
Assay metric: IC50 (nM)
Answers are plain numbers, in nM.

>  <Smiles repr>
CN(C)c1ccc(-c2cc3nccnc3c(OC[C@H]3CCCNC3)n2)cn1

>  <Assay system>
Tyrosine-protein kinase SYK (Homo sapiens, UniProt P43405)

>  <IC50 (nM)>
126

$$$$

Hello, I would appreciate it if you could give IC50 for each entry below.
1. Cc1ccc(-c2cc3ncn(C)c(=O)c3c(NC[C@H]3CCCNC3)n2)cc1
2. CN(C)c1ccc(-c2cc3nccnc3c(NC[C@@H]3CNCCC3(F)F)n2)cn1

1. 1260
2. 158
